Sourced from the supplement of paper PMC9233669

- Tested on: biotinyl-Val-oxazolone
- measurement_notes: self-aminoacylation, catalytic enhancement (BVO) (fold over background); higher = more active; k-Seq, kA / k0A0; sequences stand for … in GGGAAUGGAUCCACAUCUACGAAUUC…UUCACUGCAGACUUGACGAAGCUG
Fewer inactive variants are shown than the library holds.
In this section we review reported self-aminoacylation values for a set of sequences.

Use the examples below as a reference point.
residue_sequence="CCACACUUCGAGUAAUCGGUC [Fam1B.1 aminoacylation ribozyme variant]" study_system=biotinyl-Val-oxazolone data_value=0.893
residue_sequence="AAGCACCUAGGUCAUCGGGUG [Fam2.2 aminoacylation ribozyme variant]" study_system=biotinyl-Val-oxazolone data_value=2.91

// below: self-aminoacylation requested for another sequence
INPUT: Recorded self-aminoacylation for AUUCACCUAGGUCGUCGAGUG [Fam2.2 aminoacylation ribozyme variant] , please?
OUTPUT: 0.878

###

- Test system: biotinyl-Val-oxazolone
- measurement_notes: self-aminoacylation, catalytic enhancement (BVO) (fold over background); higher = more active; k-Seq, kA / k0A0; sequences stand for … in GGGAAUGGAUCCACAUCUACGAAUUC…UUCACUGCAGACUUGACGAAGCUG
This sample holds only a part of the variants without activity.
The following sequences are shown together with reported self-aminoacylation values.
// return just the number, without any unit appended

INPUT: Look up self-aminoacylation for this sequence: AAGGUUGGUAAUAGUCGCAAG [Fam3.1 aminoacylation ribozyme variant]
OUTPUT: 1.38

INPUT: And for AUUGCCCUGGUCAUCGAGUGG [Fam2.1 aminoacylation ribozyme variant] ?
OUTPUT: 10.9

INPUT: How about this sequence: AUUCCCUUGGUCAUCGAGUGA [Fam2.1 aminoacylation ribozyme variant]
OUTPUT: 6.58

INPUT: How about this sequence: AUUACCCUGGUUAUCGAGUAA [Fam2.1 aminoacylation ribozyme variant]
OUTPUT: 1.24

INPUT: Record: AGUCACCUAGGUCAUAGGGUG [Fam2.2 aminoacylation ribozyme variant]
OUTPUT: 2.17

INPUT: Please do the same for AUUGACCUAGGUCAGCGGGUG [Fam2.2 aminoacylation ribozyme variant] as well.
OUTPUT: 2.86

INPUT: Also AUUACCCUGGUCAUCGGCUGA [Fam2.1 aminoacylation ribozyme variant] , if possible.
OUTPUT: 3.04

INPUT: // repeat for CUACUUUAAAAAAUCGGUCUG [Fam1A.1 aminoacylation ribozyme variant] and report
OUTPUT: 0.87

INPUT: And CCACACUUCAAGCCCUCGGUC [Fam1B.1 aminoacylation ribozyme variant] ?
OUTPUT: 1.58

###

# self-aminoacylation listing for each entry below
- Tested on: biotinyl-Val-oxazolone
- measurement_notes: self-aminoacylation, catalytic enhancement (BVO) (fold over background); higher = more active; k-Seq, kA / k0A0; sequences stand for … in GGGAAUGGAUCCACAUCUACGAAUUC…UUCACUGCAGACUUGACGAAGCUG
This sample holds only a part of the variants without activity.
Enter the number alone.

INPUT: Query self-aminoacylation on biotinyl-Val-oxazolone for AAUCACCUAGGCCAUCGGGUG [Fam2.2 aminoacylation ribozyme variant]
OUTPUT: 3.86

INPUT: Similarly, GUUAGCCUGGUCAUCGAGUGA [Fam2.1 aminoacylation ribozyme variant] ?
OUTPUT: 5.04

INPUT: Here is the next sequence: AUUCACCUAGGUAAUCGCGUG [Fam2.2 aminoacylation ribozyme variant]
OUTPUT: 2.15

INPUT: And for AAGUUUGCCAAUGGUCGCAAG [Fam3.1 aminoacylation ribozyme variant] ?
OUTPUT: 0.852

INPUT: Same thing, different sequence: AAGUGUGCCAAUAGUCGCAAG [Fam3.1 aminoacylation ribozyme variant]
OUTPUT: 1.61

INPUT: Repeat with AUUUACCUAGGUCAUCGGAUG [Fam2.2 aminoacylation ribozyme variant]
OUTPUT: 0.974

INPUT: Similarly, AAGUUUGCCAGUAGUCGCAAG [Fam3.1 aminoacylation ribozyme variant] ?
OUTPUT: 0.932

INPUT: Also need CCAAACCUCAAGCAAUCGGUC [Fam1B.1 aminoacylation ribozyme variant] , thanks.
OUTPUT: 1.29

INPUT: // repeat for AUUCACCCAAGUCAUCGGGUG [Fam2.2 aminoacylation ribozyme variant] and report
OUTPUT: 5.86

INPUT: And AUUCACCAAGGUCAUGGGGUG [Fam2.2 aminoacylation ribozyme variant] ?
OUTPUT: 5.88

INPUT: Would you kindly repeat that for GCACCCUUCAAGCAAUCGGUC [Fam1B.1 aminoacylation ribozyme variant] ?
OUTPUT: 1.47

INPUT: Can you check CUACAUCAAACACUCGGUCUG [Fam1A.1 aminoacylation ribozyme variant] next?
OUTPUT: 1.26

INPUT: Then this sequence: CCCCACUUCAAGCAAUCGGGC [Fam1B.1 aminoacylation ribozyme variant]
OUTPUT: 2.92

INPUT: Then what about the sequence AUUACCCUGCCCAUCGAGUGA [Fam2.1 aminoacylation ribozyme variant] ?
OUTPUT: 3.23

INPUT: // same read-out, input: AUUCACCUAGGUCGUCGCGUG [Fam2.2 aminoacylation ribozyme variant]
OUTPUT: 3.84

INPUT: Consider next the sequence CCACACUUCAAGUAGUCGGUC [Fam1B.1 aminoacylation ribozyme variant] in the same way.
OUTPUT: 0.865

INPUT: Also, AUUACCGUGGUCCUCGAGUGA [Fam2.1 aminoacylation ribozyme variant] please.
OUTPUT: 3.69

INPUT: Another sequence: AUUCAGCUAGGUCAUCGAGUG [Fam2.2 aminoacylation ribozyme variant]
OUTPUT: 1.95

###

- System: biotinyl-Met-oxazolone
- measurement_notes: self-aminoacylation, catalytic enhancement (BMO) (fold over background); higher = more active; k-Seq, kA / k0A0; sequences stand for … in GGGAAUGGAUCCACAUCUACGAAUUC…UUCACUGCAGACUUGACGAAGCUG
This sample holds only a part of the variants without activity.
We begin with a simple list: items and their reported self-aminoacylation.

Past entries and their recorded results:
residue_sequence="AUUACCCUGGUGCUCGAGUGA [Fam2.1 aminoacylation ribozyme variant]" study_system=biotinyl-Met-oxazolone data_value=3.93
residue_sequence="CAACUUCAAACCAUCGGUCUG [Fam1A.1 aminoacylation ribozyme variant]" study_system=biotinyl-Met-oxazolone data_value=0.913

INPUT: What does the data say about its self-aminoacylation? Entry: CUACUUCAAAGAAUUGGUCUG [Fam1A.1 aminoacylation ribozyme variant]
OUTPUT: 0.954

INPUT: // next record UAGGUUGCUAAUAGUCGCAAG [Fam3.1 aminoacylation ribozyme variant]
OUTPUT: 1.2

INPUT: What do you have for AAGUUUGCUAACAGUCGCGAG [Fam3.1 aminoacylation ribozyme variant] ?
OUTPUT: 0.591

###

- Test system: biotinyl-Phe-oxazolone
- measurement_notes: self-aminoacylation, catalytic enhancement (BFO) (fold over background); higher = more active; k-Seq, kA / k0A0; sequences stand for … in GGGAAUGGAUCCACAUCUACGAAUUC…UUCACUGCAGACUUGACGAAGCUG
Variants at the floor of the assay were thinned out.
measurement_kind: self-aminoacylation
Output: the number by itself.

The cases that follow already have their self-aminoacylation on record.
residue_sequence="CCACACUUCAAGCAAUAGGCC [Fam1B.1 aminoacylation ribozyme variant]" data_value=0.88
residue_sequence="AUUAACCUGGGCAUCGAGUGA [Fam2.1 aminoacylation ribozyme variant]" data_value=20.5
residue_sequence="CUACGUCACACAAUCGGUCUG [Fam1A.1 aminoacylation ribozyme variant]" data_value=0.794
residue_sequence="CUACUUCAAACAAUUGGUCGG [Fam1A.1 aminoacylation ribozyme variant]" data_value=0.858
residue_sequence="CUACUACAAACCAUCGGUCUG [Fam1A.1 aminoacylation ribozyme variant]" data_value=0.739
residue_sequence="AUUCACCUAGGUCGUCUGGUG [Fam2.2 aminoacylation ribozyme variant]" data_value=5.84

INPUT: I would be grateful if you could share the reported self-aminoacylation for AAGUUUGCUAAGAGUCGUAAG [Fam3.1 aminoacylation ribozyme variant] .
OUTPUT: 7.41

INPUT: Input CGACUUCAAACAAUUGGUCUG [Fam1A.1 aminoacylation ribozyme variant]
OUTPUT: 1.57

INPUT: Note, next up: AUCCACCGAGGUCAUCGGGUG [Fam2.2 aminoacylation ribozyme variant]
OUTPUT: 125

INPUT: AUUCCCCUAGGUCAUCAGGUG [Fam2.2 aminoacylation ribozyme variant] , same question.
OUTPUT: 29.4

INPUT: What do you have for CUAGUUAAAACAAUCGGUCUG [Fam1A.1 aminoacylation ribozyme variant] ?
OUTPUT: 0.675

INPUT: Quick one: AUUCAUCUAGGUCAUCGGAUG [Fam2.2 aminoacylation ribozyme variant]
OUTPUT: 0.576

INPUT: Field entry: CUACGUCAAACAAACGGUCUG [Fam1A.1 aminoacylation ribozyme variant]
OUTPUT: 0.89

INPUT: Then this sequence: AUUACCCUGCUCAUCGAAUGA [Fam2.1 aminoacylation ribozyme variant]
OUTPUT: 0.772

INPUT: Thanks! And AUUACCCUGGUCAUCCAGUGC [Fam2.1 aminoacylation ribozyme variant] ?
OUTPUT: 5.75

INPUT: Next up: AAGUUUGCUAAUAGUGGCAAU [Fam3.1 aminoacylation ribozyme variant]
OUTPUT: 1.43
